settings: 313.15 K; 101 kPa; Liquid; Vibrating tube method
endpoint: mass density (kg/m3)

INSERT INTO results (chemical_smiles, endpoint, reported_value) VALUES
  ('CCn1cc[n+](C)c1.O=S(=O)([N-]S(=O)(=O)C(F)(F)F)C(F)(F)F', 'mass density', 1502.2),
  ('CCCC[n+]1ccn(C)c1.O=S(=O)([N-]S(=O)(=O)C(F)(F)F)C(F)(F)F', 'mass density', 1420.7),
  ('CCO', 'mass density', 773.03),
  ('CCCn1cc[n+](C)c1.O=S(=O)([N-]S(=O)(=O)C(F)(F)F)C(F)(F)F', 'mass density', 1458.33),
  ('CCCCCC[n+]1ccn(C)c1.O=S(=O)([N-]S(=O)(=O)C(F)(F)F)C(F)(F)F', 'mass density', 1356.95);

###

conditions: 313.15 K; 101.3 kPa; Liquid; Vibrating tube method
Short version: mass density at least 1000 kg/m3 is yes (1), less is no (0).

INSERT INTO results (compound, group) VALUES
  ('CCn1cc[n+](C)c1.O=S(=O)([N-]S(=O)(=O)C(F)(F)F)C(F)(F)F', 'yes (1)'),
  ('CCO [ethanol]', 'no (0)'),
  ('CCCCCC[n+]1ccn(C)c1.O=S(=O)([N-]S(=O)(=O)C(F)(F)F)C(F)(F)F', 'yes (1)'),
  ('CCCn1cc[n+](C)c1.O=S(=O)([N-]S(=O)(=O)C(F)(F)F)C(F)(F)F', 'yes (1)'),
  ('CCCC[n+]1ccn(C)c1.O=S(=O)([N-]S(=O)(=O)C(F)(F)F)C(F)(F)F', 'yes (1)');

###

settings: 298.15 K; 101.33 kPa; Liquid; Vibrating tube method
Here, each record is paired with measured mass density data.
endpoint: mass density (kg/m3)

INSERT INTO assay_data (compound, measure_unit, reported_value) VALUES
  ('CCCn1cc[n+](C)c1.O=S(=O)([N-]S(=O)(=O)C(F)(F)F)C(F)(F)F', 'kg/m3', 1473.97),
  ('CCn1cc[n+](C)c1.O=S(=O)([N-]S(=O)(=O)C(F)(F)F)C(F)(F)F', 'kg/m3', 1518.74),
  ('CCCCCCC [heptane]', 'kg/m3', 679.57),
  ('CCO [ethanol]', 'kg/m3', 785.2),
  ('CCCC[n+]1ccn(C)c1.O=S(=O)([N-]S(=O)(=O)C(F)(F)F)C(F)(F)F', 'kg/m3', 1436.1),
  ('CCCCCC[n+]1ccn(C)c1.O=S(=O)([N-]S(=O)(=O)C(F)(F)F)C(F)(F)F', 'kg/m3', 1371.99);

###

assay: refractive index (Na D-line) (dimensionless); details: 298.15 K; 101.33 kPa; Liquid; Standard Abbe refractometry
Here, each record is paired with measured refractive index data.
endpoint: refractive index

INSERT INTO measurements (chemical_smiles, reported_value) VALUES
  ('CCn1cc[n+](C)c1.O=S(=O)([N-]S(=O)(=O)C(F)(F)F)C(F)(F)F', 1.42307),
  ('CCCCCC[n+]1ccn(C)c1.O=S(=O)([N-]S(=O)(=O)C(F)(F)F)C(F)(F)F', 1.43016),
  ('CCCC[n+]1ccn(C)c1.O=S(=O)([N-]S(=O)(=O)C(F)(F)F)C(F)(F)F', 1.42672),
  ('CCCn1cc[n+](C)c1.O=S(=O)([N-]S(=O)(=O)C(F)(F)F)C(F)(F)F', 1.42525),
  ('CCCCCCC', 1.38529);

###

Here, each record is paired with measured refractive index data.
experiment: refractive index (Na D-line) (dimensionless); conditions: 313.15 K; 101.33 kPa; Liquid; Standard Abbe refractometry
endpoint: refractive index

INSERT INTO assay_data (molecule, endpoint, reported_value) VALUES
  ('CCn1cc[n+](C)c1.O=S(=O)([N-]S(=O)(=O)C(F)(F)F)C(F)(F)F', 'refractive index', 1.41695),
  ('CCO [ethanol]', 'refractive index', 1.35353),
  ('CCCC[n+]1ccn(C)c1.O=S(=O)([N-]S(=O)(=O)C(F)(F)F)C(F)(F)F', 'refractive index', 1.42437),
  ('CCCn1cc[n+](C)c1.O=S(=O)([N-]S(=O)(=O)C(F)(F)F)C(F)(F)F', 'refractive index', 1.42016),
  ('CCCCCC[n+]1ccn(C)c1.O=S(=O)([N-]S(=O)(=O)C(F)(F)F)C(F)(F)F', 'refractive index', 1.42542);

###

Here, each record is paired with measured refractive index data.
test: refractive index (Na D-line) (dimensionless); conditions: 313.15 K; 101 kPa; Liquid; Standard Abbe refractometry
endpoint: refractive index

INSERT INTO results (compound, reported_value) VALUES
  ('CCCn1cc[n+](C)c1.O=S(=O)([N-]S(=O)(=O)C(F)(F)F)C(F)(F)F', 1.42016),
  ('CCO [ethanol]', 1.35353),
  ('CCn1cc[n+](C)c1.O=S(=O)([N-]S(=O)(=O)C(F)(F)F)C(F)(F)F', 1.41695),
  ('CCCC[n+]1ccn(C)c1.O=S(=O)([N-]S(=O)(=O)C(F)(F)F)C(F)(F)F', 1.42437),
  ('CCCCCC[n+]1ccn(C)c1.O=S(=O)([N-]S(=O)(=O)C(F)(F)F)C(F)(F)F', 1.42542);

These entries and their values trace back to the NIST ThermoML archive (doi:10.1016/j.jct.2012.04.026).
